Tested on: F-36P
protocol: CellTiter Glo cell viability assay, GI50, 72 hrs
Type: cell-based
condition details: F-36P cells, treated for 72 hrs, CellTiter Glo; read-out: GI50
measurement type: GI50 (µM)
Return type: number; implicit unit µM.

Below: 2 compounds and their reported GI50.
>  <smiles notation>
Nc1ccn([C@@H]2O[C@H](CO)[C@@H](O)[C@@H]2O)c(=O)n1

>  <measurement type>
GI50

>  <recorded number>
0.15

$$$$
>  <smiles notation>
Nc1ncn([C@@H]2O[C@H](CO)[C@@H](O)[C@H]2O)c(=O)n1

>  <measurement type>
GI50

>  <recorded number>
4

$$$$

Note: attention shifts to another entry.
Challenge: Determine from records and report GI50 for CC1(C)CCC(CN2CCN(c3ccc(C(=O)NS(=O)(=O)c4ccc(NCC5CCOCC5)c([N+](=O)[O-])c4)c(Oc4cnc5[nH]ccc5c4)c3)CC2)=C(c2ccc(Cl)cc2)C1
Response given: 18

Source: patent US12178821B2
